Target: T1, recombinant human FGF23 (R179Q) (human, UniProt Q9GZV9 25-251)
T1 construct: also called rhFGF23(R179Q); hFGF23(R179Q)
T1 sequence (looked up): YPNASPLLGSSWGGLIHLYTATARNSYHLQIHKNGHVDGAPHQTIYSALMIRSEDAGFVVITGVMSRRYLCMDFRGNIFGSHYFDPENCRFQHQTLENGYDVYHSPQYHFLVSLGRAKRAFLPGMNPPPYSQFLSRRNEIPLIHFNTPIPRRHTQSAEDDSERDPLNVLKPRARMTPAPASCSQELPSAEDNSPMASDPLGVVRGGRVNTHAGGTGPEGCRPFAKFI
Test: SPR, antibody captured on hIgG chip, rhFGF23(R179Q) analyte
Listed next: entries and their corresponding koff.
Number only, in s⁻¹; omit the unit.

binder: UGX145 (antibody, human IgG1, kappa, V domains shown, also called UGX042; LC:Y94E) VH: QVQLVQSGAEVKKPGASVKVSCKASGYTFTNHYMHWVRQAPGQGLEWMGIINPISGSTSNAQKFQGRVTMTRDTSTSTVYMELSSLRSEDTAVYYCARDIVDAFDFWGQGTMVTVSS VL: AIQLTQSPSSLSASVGDRVTITCRASQGISSALVWYQQKPGKAPKLLIYDASSLESGVPSRFSGSGSGTDFTLTISSLQPEDFATYYCQQFNDEFTFGPGTKVDIKR
koff [s⁻¹]: 8.52e-05
--
binder: UGX204 (antibody, human IgG1, kappa, V domains shown, also called HC:S59E, LC:S52E; S59E/S52E) VH: QVQLVQSGAEVKKPGASVKVSCKASGYTFTNHYMHWVRQAPGQGLEWMGIINPISGSTENAQKFQGRVTMTRDTSTSTVYMELSSLRSEDTAVYYCARDIVDAFDFWGQGTMVTVSS VL: AIQLTQSPSSLSASVGDRVTITCRASQGISSALVWYQQKPGKAPKLLIYDAESLESGVPSRFSGSGSGTDFTLTISSLQPEDFATYYCQQFNDYFTFGPGTKVDIKR
koff [s⁻¹]: 0.000186
--
binder: UGX182 (antibody, human IgG1, kappa, V domains shown, also called HC:S59D, HC:V101I; S59D/V101I) VH: QVQLVQSGAEVKKPGASVKVSCKASGYTFTNHYMHWVRQAPGQGLEWMGIINPISGSTDNAQKFQGRVTMTRDTSTSTVYMELSSLRSEDTAVYYCARDIIDAFDFWGQGTMVTVSS VL: AIQLTQSPSSLSASVGDRVTITCRASQGISSALVWYQQKPGKAPKLLIYDASSLESGVPSRFSGSGSGTDFTLTISSLQPEDFATYYCQQFNDYFTFGPGTKVDIKR
koff [s⁻¹]: 0.000141

Challenge: For UGX205 (antibody, human IgG1, kappa, V domains shown, also called HC:S59E, LC:Y94D; S59E/Y94D) VH: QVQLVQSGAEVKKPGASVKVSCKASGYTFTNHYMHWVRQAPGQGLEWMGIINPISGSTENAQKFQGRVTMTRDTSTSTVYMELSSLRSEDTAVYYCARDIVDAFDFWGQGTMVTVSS VL: AIQLTQSPSSLSASVGDRVTITCRASQGISSALVWYQQKPGKAPKLLIYDASSLESGVPSRFSGSGSGTDFTLTISSLQPEDFATYYCQQFNDDFTFGPGTKVDIKR , what is its reported koff?
Response given: 6.25e-05

Challenge: For UGX175 (antibody, human IgG1, kappa, V domains shown, also called HC:A103S; A103S) VH: QVQLVQSGAEVKKPGASVKVSCKASGYTFTNHYMHWVRQAPGQGLEWMGIINPISGSTSNAQKFQGRVTMTRDTSTSTVYMELSSLRSEDTAVYYCARDIVDSFDFWGQGTMVTVSS VL: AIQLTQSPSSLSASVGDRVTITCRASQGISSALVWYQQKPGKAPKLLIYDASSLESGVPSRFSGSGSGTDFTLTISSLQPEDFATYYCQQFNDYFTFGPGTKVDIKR , what is its reported koff?
Response given: 9.61e-05
